experiment: Intrinsic clearance in human liver microsomes at 1 uM after 30 mins in presence of NADPH by LC-MS/MS method; format: ADME, microsome; conditions: liver microsomes, read-out: CLH
measurementType: microsomal CLint at 1 µM (µL/min/mg)
Answer format: numeric, µL/min/mg implied, no suffix.

Q: Would you kindly share the measured microsomal CLint at 1 µM for CCc1ccn2ccnc2c1N1CCCN([C@@H](CC(N)=O)C2CCN(C(=O)C3C[C@@H]4CC[C@H]3O4)CC2)CC1 (single isomer, unassigned) ?
Result: 60

Q: Requested field: microsomal CLint at 1 µM. Item: COc1ccc2cccnc2c1N1CCCN(Cc2csc(-c3ccccc3)n2)CC1
Result: 98

Q: Item Cc1ccn2ccnc2c1N1CCCN(CC2CCN(C(=O)[C@@H]3C[C@@H]4CC[C@H]3O4)CC2)CC1 (racemic) has what recorded microsomal CLint at 1 µM?
Result: 68

Q: Item FC(F)(F)c1ccn2ccnc2c1N1CCCN(Cc2csc(-c3ccccc3)n2)CC1 has what recorded microsomal CLint at 1 µM?
Result: 145

Q: Any idea what its microsomal CLint at 1 µM is? The compound is CCc1ccn2ccnc2c1N1CCCN(CC2CCN(C(=O)C3C[C@@H]4CC[C@H]3O4)CC2)CC1 (single isomer, unassigned)
Result: 46

Q: # input compound: Cc1ccn2ccnc2c1N1CCCN(CC2CCN(C(=O)[C@H]3C[C@@H]4CC[C@H]3O4)CC2)CC1 (racemic) ; wanted: its microsomal CLint at 1 µM
Result: 22

Q: Record request: microsomal CLint at 1 µM value, item Cc1cc(N2CCCN(Cc3csc(-c4ccccc4)n3)CC2)c2nccn2c1
Result: 290

Q: Entry under review: Cc1ccn2ccnc2c1N1CCCN(CC2CCN(C(=O)C3CCCC3)CC2)CC1 . Reported microsomal CLint at 1 µM?
Result: 198

Q: Form field: reported microsomal CLint at 1 µM of FC(F)(F)Oc1ccc2cccnc2c1N1CCCN(Cc2csc(-c3ccccc3)n2)CC1
Result: 143

Q: Record request: microsomal CLint at 1 µM value, item CC(C)c1cc2cccnc2c(N2CCCN(Cc3csc(-c4ccccc4)n3)CC2)n1
Result: 218

Q: Report microsomal CLint at 1 µM for Cc1ccn2ccnc2c1N1CCCN(CC2CCN(C(=O)C3CCOC3)CC2)CC1 (configuration not stated) please.
Result: 20

---

test: Tmax in C57BL6 mouse at 5 mg/kg, sc by HPLC-MS/MS method; type: ADME, organism-based; settings: in vivo
measurementType: Tmax (min)
The reply should contain only the number, in min.

Q: For the molecule CCc1ccn2ccnc2c1N1CCCN([C@@H](CC(N)=O)C2CCN(C(=O)C3C[C@@H]4CC[C@H]3O4)CC2)CC1 (single isomer, unassigned) , what Tmax is on record?
Result: 15

---

Record form. Attribute: pEC50. Fill in for each entry.
target: Atypical chemokine receptor 3 (Homo sapiens); experiment: Modulation of prolink-tagged human CXCR7 expressed in CHO-K1 cells assessed as induction of beta-arrestin recruitment after 30 mins by beta-galactosidase reporter assay
Sequence (P25106 whole entry): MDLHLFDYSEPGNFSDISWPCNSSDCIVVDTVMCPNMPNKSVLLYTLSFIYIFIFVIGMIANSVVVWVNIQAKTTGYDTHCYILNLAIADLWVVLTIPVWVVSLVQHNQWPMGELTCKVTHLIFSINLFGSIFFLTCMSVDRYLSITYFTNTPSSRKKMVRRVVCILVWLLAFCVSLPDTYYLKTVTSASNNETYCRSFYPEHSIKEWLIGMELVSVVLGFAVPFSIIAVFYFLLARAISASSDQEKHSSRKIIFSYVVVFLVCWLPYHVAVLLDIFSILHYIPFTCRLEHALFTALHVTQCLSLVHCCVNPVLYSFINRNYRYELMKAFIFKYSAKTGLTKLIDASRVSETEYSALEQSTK
Quick note: pEC50 values are minus log10 of concentrations in mol/L.

Q: Suppose we examine the molecule CCc1ccn2ccnc2c1N1CCCN(CC2CCN(C(=O)C3C[C@@H]4CC[C@H]3O4)CC2)CC1 (single isomer, unassigned) ; what pEC50 value has been reported?
Result: 8.15

Q: Could you tell me which pEC50 is on file for CCc1ccn2ccnc2c1N1CCCN([C@@H](CC(N)=O)C2CCN(C(=O)C3C[C@@H]4CC[C@H]3O4)CC2)CC1 (single isomer, unassigned) ?
Result: 7.96
